Hey, just so you know, these numbers are from patent US20100196385A1.

# assayed_system: T1, full length human DLL4 (human, UniProt Q9NR61 27-685)
# T1 construct: whole, on cells; also called native DLL4 expressed in HEK293 cells
# T1 sequence (Q9NR61 27-685): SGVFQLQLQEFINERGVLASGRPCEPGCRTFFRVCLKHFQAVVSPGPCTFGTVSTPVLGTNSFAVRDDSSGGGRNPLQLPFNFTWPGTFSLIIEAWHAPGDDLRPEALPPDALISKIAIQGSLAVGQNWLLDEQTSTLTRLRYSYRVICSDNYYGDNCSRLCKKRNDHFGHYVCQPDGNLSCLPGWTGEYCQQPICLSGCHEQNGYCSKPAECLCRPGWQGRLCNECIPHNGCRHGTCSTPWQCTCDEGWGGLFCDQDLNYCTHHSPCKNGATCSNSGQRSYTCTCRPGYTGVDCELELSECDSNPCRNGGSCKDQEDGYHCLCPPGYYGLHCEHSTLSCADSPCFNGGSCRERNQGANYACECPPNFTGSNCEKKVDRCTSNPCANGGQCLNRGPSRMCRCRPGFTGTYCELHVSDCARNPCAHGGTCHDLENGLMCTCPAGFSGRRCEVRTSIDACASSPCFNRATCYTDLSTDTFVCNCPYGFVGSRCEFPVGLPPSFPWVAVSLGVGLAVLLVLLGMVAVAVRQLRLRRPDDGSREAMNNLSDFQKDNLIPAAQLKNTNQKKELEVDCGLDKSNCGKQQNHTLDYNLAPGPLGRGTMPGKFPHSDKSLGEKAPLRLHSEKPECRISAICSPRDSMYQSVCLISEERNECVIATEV
# protocol: FACS competition, unlabeled antibody vs competitor Alexa-647 21H3RK, HEK293 cells with human DLL4
property_label: IC50 (µg/mL)
State just the number; it will be interpreted in µg/mL.

**Q:** // IC50 lookup, key: 21H3 (antibody, IgG4, V domains shown, Fully human; used for IgG4 rows and where no isotype is printed; also called 21H3 IgG4) VH: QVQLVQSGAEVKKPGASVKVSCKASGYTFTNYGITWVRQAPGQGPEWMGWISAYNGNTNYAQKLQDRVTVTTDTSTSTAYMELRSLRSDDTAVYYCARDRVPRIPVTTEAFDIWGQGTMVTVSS VL: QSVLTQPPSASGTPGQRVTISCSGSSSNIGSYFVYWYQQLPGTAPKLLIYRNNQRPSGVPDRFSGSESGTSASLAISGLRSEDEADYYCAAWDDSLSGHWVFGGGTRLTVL
**A:** 0.248
